These measurements were taken from paper PMC5046105.

# tested_target: Pseudo wild type SAP97 PDZ2 (second PDZ domain of synapse associated protein 97, I342W/C378A) (human) (UniProt Q12959)
# Sequence (Q12959 311-407, stated change not applied): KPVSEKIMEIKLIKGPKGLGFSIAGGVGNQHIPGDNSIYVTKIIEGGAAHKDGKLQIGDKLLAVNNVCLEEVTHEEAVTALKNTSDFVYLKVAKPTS
# experimental_details: stopped-flow spectroscopy
Ends that are not written are not given here.
reported_endpoint: Kd (nM)
Answers are plain numbers, in nM.

Q: Quick one: Kd for Ac-KRKETLV [KRKETLV peptide (C-terminus of neuroepithelial cell-transforming gene 1 protein, Net1)] ?
A: 470
